- System: E. faecalis
- assayProcedure: MIC assay, E. faecalis
- Assay type: cell-based, Enterococcus faecalis
reportedMetric: MIC (μg/mL) E. faecalis (µg/mL)
Answers are plain numbers, in µg/mL.

For orientation, consider the following solved cases.
compound: CCCC(=O)NC1CCN(c2cc(O)c3nc4c5c6c7c(C)c(O)c5c(=O)c(c-4oc3c2)NC(=O)C(C)=CC=CC(C)C(O)C(C)C(O)C(C)C(O)C(C)C(OC)C=COC(C)(O7)C6=O)CC1 (stereo not shown) [Compound 36]
testedSystem: E. faecalis
reportedMetric: MIC (μg/mL) E. faecalis
dataValue: 2
--
compound: COC1C=COC2(C)Oc3c(C)c(O)c4c(=O)c(c5oc6cc(N7CCC(NS(=O)(=O)C(F)(F)F)CC7)cc(O)c6nc-5c4c3C2=O)NC(=O)C(C)=CC=CC(C)C(O)C(C)C(O)C(C)C(O)C1C (stereo not shown) [Compound 38]
testedSystem: E. faecalis
reportedMetric: MIC (μg/mL) E. faecalis
dataValue: 8
--
compound: COC1C=COC2(C)Oc3c(C)c(O)c4c(=O)c(c5oc6cc(N7CCC(N)CC7)cc(O)c6nc-5c4c3C2=O)NC(=O)C(C)=CC=CC(C)C(O)C(C)C(O)C(C)C(O)C1C (stereo not shown) [Compound 39]
testedSystem: E. faecalis
reportedMetric: MIC (μg/mL) E. faecalis
dataValue: 2

Turning to the following compound.
Exam item: Give the reported MIC (μg/mL) E. faecalis for COC1C=COC2(C)Oc3c(C)c(O)c4c(=O)c(c5oc6cc(N7CCC(F)CC7)ccc6nc-5c4c3C2=O)NC(=O)C(C)=CC=CC(C)C(O)C(C)C(O)C(C)C(O)C1C (stereo not shown) [Compound 111] (system: E. faecalis).
Marked response: 0.5

====

Would you mind telling me the reported MIC (μg/mL) H. flu of each entry?
- Test system: H. flu
- Assay type: cell-based, H. influenza
- measurementConditions: H. flu
Give bare numbers, in µg/mL.

compound: COC1C=COC2(C)Oc3c(C)c(O)c4c(=O)c(c5oc6cc(N7CCN8CCCC8C7)cc(O)c6nc-5c4c3C2=O)NC(=O)C(C)=CC=CC(C)C(O)C(C)C(O)C(C)C(O)C1C (centres unmarked) [Compound 84]
MIC (μg/mL) H. flu (µg/mL): 0.25

Turning to the following compound.
Exam item: Look up MIC (μg/mL) H. flu for this compound: CO[C@H]1/C=C/O[C@@]2(C)Oc3c(C)c(O)c4c(=O)c(c5oc6cc(N7CCC(N(C)C)CC7)cc(O)c6nc-5c4c3C2=O)NC(=O)/C(C)=C\C=C\[C@H](C)[C@H](O)[C@@H](C)[C@@H](O)[C@@H](C)[C@H](O)[C@@H]1C
Marked response: 0.5

====

- Tested on: H. flu
- Assay type: cell-based, H. influenza
- measurementConditions: H. flu
MIC (μg/mL) H. flu less than 0.5 µg/mL is 1; MIC (μg/mL) H. flu greater than or equal to 0.5 µg/mL is 0.

compound: CO[C@H]1/C=C/O[C@@]2(C)Oc3c(C)c(O)c4c(=O)c(c5oc6cc(N7C[C@@H]8CCCN[C@@H]8C7)cc(O)c6nc-5c4c3C2=O)NC(=O)/C(C)=C\C=C\[C@H](C)[C@H](O)[C@@H](C)[C@@H](O)[C@@H](C)[C@H](OC(C)=O)[C@@H]1C
testedSystem: H. flu
classLabel: 0

compound: COC1C=COC2(C)Oc3c(C)c(O)c4c(=O)c(c5oc6cc(N7CCC(N)CC7)cc(O)c6nc-5c4c3C2=O)NC(=O)C(C)=CC=CC(C)C(O)C(C)C(O)C(C)C(O)C1C (stereo not drawn)
testedSystem: H. flu
classLabel: 1

compound: CO[C@H]1/C=C/O[C@@]2(C)Oc3c(C)c(O)c4c(=O)c(c5oc6cc(N7CC8CCC(C7)N8)cc(O)c6nc-5c4c3C2=O)NC(=O)/C(C)=C\C=C\[C@H](C)[C@H](O)[C@@H](C)[C@@H](O)[C@@H](C)[C@H](OC(C)=O)[C@@H]1C
testedSystem: H. flu
classLabel: 0

Exam item: For this compound, is MIC (μg/mL) H. flu lower than 0.5 µg/mL? CO[C@H]1/C=C/O[C@@]2(C)Oc3c(C)c(O)c4c(=O)c(c5oc6cc(N7CCC(NS(C)(=O)=O)CC7)cc(O)c6nc-5c4c3C2=O)NC(=O)/C(C)=C\C=C\[C@H](C)[C@H](O)[C@@H](C)[C@@H](O)[C@@H](C)[C@H](OC(C)=O)[C@@H]1C
Marked response: 0

Exam item: For this compound, is MIC (μg/mL) H. flu lower than 0.5 µg/mL? CO[C@H]1/C=C/O[C@@]2(C)Oc3c(C)c(O)c4c(=O)c(c5oc6cc(N7CCC(N(C)C)CC7)cc(O)c6nc-5c4c3C2=O)NC(=O)/C(C)=C\C=C\[C@H](C)[C@H](O)[C@@H](C)[C@@H](O)[C@@H](C)[C@H](OC(C)=O)[C@@H]1C
Marked response: 0

Exam item: For this compound, is MIC (μg/mL) H. flu lower than 0.5 µg/mL? CCC1CN(c2cc(O)c3nc4c5c6c7c(C)c(O)c5c(=O)c(c-4oc3c2)NC(=O)C(C)=CC=CC(C)C(O)C(C)C(O)C(C)C(O)C(C)C(OC)C=COC(C)(O7)C6=O)CC(C)N1 (stereo not drawn)
Marked response: 1

Exam item: For this compound, is MIC (μg/mL) H. flu lower than 0.5 µg/mL? CCCS(=O)(=O)NC1CCN(c2cc(O)c3nc4c5c6c7c(C)c(O)c5c(=O)c(c-4oc3c2)NC(=O)C(C)=CC=CC(C)C(O)C(C)C(O)C(C)C(O)C(C)C(OC)C=COC(C)(O7)C6=O)CC1 (stereo not drawn)
Marked response: 1
